Tested on: Yap1 mRNA
Assay: Dose-dependent inhibition of human Yap1 in A-431 cells (Example 6, 5,000 cells per well, RTS4814)
Type: cell-based
Settings: Table 54; A-431 cells, free uptake, 148 nM, approximately 48 hours, RTS4814
Strand notation (5' to 3'): a small letter for the sugar, then the base; units joined by * are phosphorothioate-linked, units joined directly phosphodiester-linked; [ ] holds rarer units or linkages, { } end groups; capitals alone tell only the bases. k = constrained ethyl (cEt); [5mC] = 5-methylcytosine; d = 2'-deoxy (DNA)
measured-metric: % UTC 148 nM
Please answer in the form of a number followed by its unit of measurement.

# annotated cases, reported % UTC 148 nM shown
716481 (antisense kT*k[5mC]*kA*dG*d[5mC]*dA*dT*dA*dG*dA*dA*dG*dT*kA*kG*kG) [compound 716481] = 89 % UTC
716484 (antisense k[5mC]*kA*k[5mC]*dT*dT*dT*dT*d[5mC]*d[5mC]*dA*dG*d[5mC]*dT*kA*kA*k[5mC]) [compound 716484] = 88 % UTC

Proceeding to the next substance to report its % UTC 148 nM.
Query: Reported % UTC 148 nM, substance 716445 (antisense kG*kT*kA*dT*dG*dT*dG*dG*d[5mC]*dA*dA*dT*dA*kA*kT*kT) [compound 716445] : ____
Response: 89 % UTC

====

Test system: Yap1 mRNA
Assay: Dose-dependent inhibition of human Yap1 in A-431 cells (Example 8, 10,000 cells per well, RTS4814)
Format: cell-based
Conditions: 2000.00 nM; A-431 cells, 10,000 cells per well, free uptake, approximately 48 hours, RTS4814
Strand notation (5' to 3'): a small letter for the sugar, then the base; units joined by * are phosphorothioate-linked, units joined directly phosphodiester-linked; [ ] holds rarer units or linkages, { } end groups; capitals alone tell only the bases. k = constrained ethyl (cEt); [5mC] = 5-methylcytosine; d = 2'-deoxy (DNA)
measured-metric: Yap1 mRNA, % UTC (% UTC)
Give bare numbers, in % UTC.

Some solved entries appear below for comparison.
1074411 (kT*kG*kT*dG*dA*dA*dA*dG*dA*dG*dG*dT*d[5mC]*kA*kG*k[5mC]; antisense) [compound 1074411] = 6
1076388 (antisense kG*kA*kA*dA*dT*dA*dT*dT*d[5mC]*dG*dA*dG*dA*kA*kG*kA) [compound 1076388] = 6

Please find the next substance below.
Query: Entry 1074565 (DNA kA*k[5mC]*kT*dG*dA*dA*dT*dT*d[5mC]*d[5mC]*dA*dA*dT*k[5mC]*kG*kA; antisense) [compound 1074565] , system Yap1 mRNA: what Yap1 mRNA, % UTC was measured?
Response: 6

====

Test system: Yap1 mRNA
Assay: Antisense inhibition of human Yap1 in A-431 cells by cEt gapmers, single dose (Example 2, RTS4814)
Format: cell-based
Details: Table 25; Yap1 mRNA as percent of untreated control; 3-10-3 cEt gapmers targeting SEQ ID NO.: 1, and 2
Strand notation (5' to 3'): a small letter for the sugar, then the base; units joined by * are phosphorothioate-linked, units joined directly phosphodiester-linked; [ ] holds rarer units or linkages, { } end groups; capitals alone tell only the bases. k = constrained ethyl (cEt); [5mC] = 5-methylcytosine; d = 2'-deoxy (DNA)
Range-based classes on measured YAP1 (% UTC): low end (below 20 % UTC), middle (20 % UTC to below 60 % UTC), high end (60 % UTC or more)

Consider the worked cases shown below.
1074155 (antisense k[5mC]*k[5mC]*k[5mC]*dG*dG*d[5mC]*dT*d[5mC]*d[5mC]*dA*d[5mC]*dG*dG*kG*k[5mC]*k[5mC]) [Compound 1074155] = high end
1076555 (antisense kT*kG*kG*dG*dA*dA*dT*dA*dG*dT*dA*d[5mC]*dA*k[5mC]*kA*kG) [Compound 1076555] = low end
1074603 (antisense kT*kT*k[5mC]*d[5mC]*dA*dG*d[5mC]*dT*dA*dA*d[5mC]*dT*d[5mC]*kA*kA*kA) [Compound 1074603] = low end
1074635 (antisense kT*k[5mC]*k[5mC]*d[5mC]*dA*dA*dG*d[5mC]*dT*dG*dA*dG*dG*k[5mC]*kT*kT) [Compound 1074635] = middle
1075115 (antisense kG*kT*kA*dT*dA*dG*d[5mC]*d[5mC]*dT*dT*dA*dT*dT*k[5mC]*kT*kT) [Compound 1075115] = low end

Query: Given 1075627 (kA*kT*kA*dA*dG*dA*dT*dA*dG*dT*d[5mC]*dG*dG*kT*kT*k[5mC]; antisense) [Compound 1075627] , name the class its YAP1 (% UTC) places it in.
Response: low end

Query: Next record, please: 1074987 (antisense kG*k[5mC]*k[5mC]*dG*d[5mC]*dG*dG*d[5mC]*dT*d[5mC]*d[5mC]*d[5mC]*dG*kA*kG*k[5mC]) [Compound 1074987]
Response: high end

Query: Also 1075403 (antisense k[5mC]*kT*kT*dA*dA*dT*d[5mC]*dA*dG*dG*dT*dA*d[5mC]*kT*kA*kT) [Compound 1075403] , if possible.
Response: low end

Query: Can you check 1076043 (k[5mC]*kA*kA*dA*dA*dA*dG*dG*d[5mC]*dT*dA*dT*dT*kG*kA*kG; antisense) [Compound 1076043] next?
Response: middle

Query: Field entry: 1075019 (antisense k[5mC]*kA*kT*dT*dA*dG*dA*dG*dT*dT*dT*dG*dA*kT*kT*kA) [Compound 1075019]
Response: high end

Query: Can you handle 1075819 (kG*kT*kA*dT*dA*dT*d[5mC]*d[5mC]*dG*dT*dT*d[5mC]*dT*k[5mC]*kA*kT; antisense) [Compound 1075819] next?
Response: low end

Query: Same question for 1075787 (k[5mC]*kT*kT*dA*dA*dG*dG*dA*dT*dT*dG*dG*d[5mC]*kT*kA*kT; antisense) [Compound 1075787] please.
Response: middle

Query: What would you report for 1075691 (k[5mC]*kG*kT*d[5mC]*dA*dA*dA*dA*dT*dT*dA*dA*d[5mC]*kA*kG*kA; antisense) [Compound 1075691] ?
Response: middle

Query: Then 1076363 (k[5mC]*kA*kT*dA*dA*dA*dA*dG*dT*d[5mC]*d[5mC]*dA*d[5mC]*kT*kA*kA; antisense) [Compound 1076363] ?
Response: high end

Query: And 1075947 (k[5mC]*kT*kT*dT*dA*dT*dA*dG*dG*dA*dA*dT*dA*kG*kA*kG; antisense) [Compound 1075947] ?
Response: high end

Query: Do the same for 1076459 (antisense k[5mC]*kT*kT*d[5mC]*dA*dA*d[5mC]*dA*dA*dG*dA*d[5mC]*dA*kG*kG*kT) [Compound 1076459] please
Response: low end

Query: Try this substance next: 1074443 (kT*k[5mC]*kA*dG*dA*d[5mC]*d[5mC]*dA*dG*dT*dA*dA*dA*kT*k[5mC]*kA; antisense) [Compound 1074443]
Response: low end

Query: Likewise for 1074315 (antisense kG*kA*kT*dT*dG*dA*dT*dA*dT*dT*d[5mC]*d[5mC]*dG*k[5mC]*kA*kT) [Compound 1074315] ?
Response: low end

Query: Next: 1075435 (antisense k[5mC]*kT*kT*dA*dA*dA*d[5mC]*dG*dA*dT*dA*dA*dA*kG*kT*kA) [Compound 1075435]
Response: high end

====

Tested on: Yap1 mRNA
Test: Dose-dependent inhibition of human Yap1 in A-431 cells (Example 8, 10,000 cells per well, RTS4814)
Assay type: cell-based
Conditions: A-431 cells, free uptake, approximately 48 hours, RTS4814; linear regression on log/linear plot
Strand notation (5' to 3'): a small letter for the sugar, then the base; units joined by * are phosphorothioate-linked, units joined directly phosphodiester-linked; [ ] holds rarer units or linkages, { } end groups; capitals alone tell only the bases. k = constrained ethyl (cEt); [5mC] = 5-methylcytosine; d = 2'-deoxy (DNA)
Exercise: for every item that follows, state its recorded IC50.

1074607 (DNA kA*kA*kG*dG*dT*dA*dT*dA*dA*dT*d[5mC]*dA*dT*kG*kA*kT) [compound 1074607] = < 20 nM

I'm hoping you can list IC50 for every substance here, please.
1. 1074597 (DNA kA*kG*kT*dA*dT*dT*d[5mC]*dT*dA*dT*d[5mC]*d[5mC]*dA*kG*kG*kG; antisense) [compound 1074597]
2. 1075744 (kT*kT*k[5mC]*dG*dG*dG*dT*dT*dA*dG*d[5mC]*dA*dG*kA*k[5mC]*kT; antisense) [compound 1075744]

Response:
1. < 20 nM
2. < 20 nM
